- Assayed Target: bovine synapsin I (Bos taurus, UniProt P17599)
- Assay: ATP-γ35S binding competition assay on purified synapsin I
- Test Context: ATP-γ35S 0.2 µM, purified bovine synapsin I 0.5 µM, means ± sem from 5 independent experiments; read-out: IC50, inhibition of ATP-γ35S binding to synapsin I
Quantity Measured: IC50 (nM)
Value expressed in nM; do not type the unit.

Prompt line: Form: Entry = Nc1ncnc2c1ncn2[C@@H]1O[C@H](COP(=O)(O)OP(=O)(O)OP(=O)(O)O)[C@@H](O)[C@H]1O | System = bovine synapsin I (Bos taurus, UniProt P17599) | IC50 = ____
Response line: 70

Prompt line: Form: Entry = O=C(O)CN1C(=O)c2c(I)c(I)c(I)c(I)c2C1=O | System = bovine synapsin I (Bos taurus, UniProt P17599) | IC50 = ____
Response line: 500
